Biological target: T1, 4H3922-AA
T1 chain: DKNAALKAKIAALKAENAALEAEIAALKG
Assay: two-hybrid library CCmax;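 further: natural log of median RNA to DNA barcode read ratio; higher means stronger binding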
Settings: mean of both orientations
recorded-metric: interaction score
Just the number.

Examples from the recorded data:
[[record]]
binder = "DKIAALEAKNAALKAKIAALEAKNAALKG [4H2536-AA]"
recorded_metric = "interaction score"
numeric_value = 0.635

[[record]]
binder = "DKIAALEAENAALEAKNAALKAKIAALKG [4H2238-AA]"
recorded_metric = "interaction score"
numeric_value = 1.59

[[record]]
binder = "DKIAALKAEIAALEAKNAALEAKIAALKG [4H2614-AA]"
recorded_metric = "interaction score"
numeric_value = 0.659

[[record]]
binder = "DEIAALEAKIAALKAKNAALEAEIAALEG [4H369-AA]"
recorded_metric = "interaction score"
numeric_value = 0.000191

[[record]]
binder = "DENAALEAENAALEAKIAALKAKIAALKG [4H1198-AA]"
recorded_metric = "interaction score"
numeric_value = 0.661


Identify the reported interaction score for the following entry. DKIAALEAKNAALKAENAALEAEIAALEG [4H2513-AA] -1.74

Using the record for DEIAALEAKIAALKAEIAALEAKNAALEG [4H327-AA] , state its measured interaction score. 0.621

Given DENAALEAKIAALKAKNAALKAKIAALEG [4H1405-AA] , respond with its interaction score. 0.997

Indicate the recorded interaction score value for this binder: DEIAALKAKNAALKAKNAALKAEIAALEG [4H1017-AA] -0.887

Provide measured interaction score value, entry: DKNAALKAEIAALKAEIAALKAKNAALKG [4H3664-AA] -1.57

Respond only with interaction score recorded for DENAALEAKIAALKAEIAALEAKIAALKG [4H1350-AA] -0.898

Note interaction score for the binder shown: DENAALEAEIAALEAKNAALKAEIAALKG [4H1082-AA] 2.18

Recall and state the measured interaction score for DKIAALEAENAALEAKIAALEAENAALEG [4H2211-AA] . -1.15

Find the measured interaction score of DKIAALKAENAALEAKIAALEAKIAALKG [4H2726-AA] and report it. -1.41
